Measurement target: TGF-beta receptor type-2 (Homo sapiens, UniProt P37173)
Sequence (P37173 whole entry): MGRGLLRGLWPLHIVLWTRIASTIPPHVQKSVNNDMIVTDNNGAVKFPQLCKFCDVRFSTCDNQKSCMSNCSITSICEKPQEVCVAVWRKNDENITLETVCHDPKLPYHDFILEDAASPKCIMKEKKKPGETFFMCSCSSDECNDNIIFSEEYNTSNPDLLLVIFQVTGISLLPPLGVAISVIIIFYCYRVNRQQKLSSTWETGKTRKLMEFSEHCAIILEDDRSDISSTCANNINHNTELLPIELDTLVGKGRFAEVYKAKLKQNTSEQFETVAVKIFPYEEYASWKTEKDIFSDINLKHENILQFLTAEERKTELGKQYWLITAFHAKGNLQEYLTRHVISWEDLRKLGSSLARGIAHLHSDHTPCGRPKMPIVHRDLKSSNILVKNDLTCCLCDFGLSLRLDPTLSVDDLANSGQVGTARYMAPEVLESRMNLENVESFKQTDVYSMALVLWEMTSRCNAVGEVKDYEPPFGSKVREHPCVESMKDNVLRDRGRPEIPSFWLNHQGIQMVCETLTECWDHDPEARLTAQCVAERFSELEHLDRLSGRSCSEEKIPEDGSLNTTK
Assay: Inhibition of recombinant human TGFbeta R2 expressed in Sf9 cells
Observed property: IC50

-- ask Give the measured IC50 of Cc1cccc(-c2nn3c(c2-c2ccc4c(ccn4C)c2)CCC3)n1 .
-- reply > 20 µM

-- ask Give the measured IC50 of Cn1cnc2ccc(-c3c(-c4ccccn4)nn4c3CCC4)cc21 .
-- reply 0.395 µM

-- ask Give the measured IC50 of c1ccc(-c2nn3c(c2-c2ccc4[nH]ccc4c2)CCC3)nc1 .
-- reply > 20 µM

-- ask Give the measured IC50 of Cc1cccc(-c2nn3c(c2-c2ccc4ncn(CCCN(C)C)c4c2)CCC3)n1 .
-- reply > 20 µM

-- ask Give the measured IC50 of Cc1cccc(-c2nn3c(c2-c2ccc4ncn(CCCN5CCCC5)c4c2)CCC3)n1 .
-- reply > 20 µM
